Could you please report measured recombinant UMI read abundance (log10) for the items listed next?
- Method notes: recombinant UMI read abundance after kanamycin selection (control-corrected) (log10(CPM+1)); higher = more efficient recombination; extreme values may be limits of the assay; sequences stand for … in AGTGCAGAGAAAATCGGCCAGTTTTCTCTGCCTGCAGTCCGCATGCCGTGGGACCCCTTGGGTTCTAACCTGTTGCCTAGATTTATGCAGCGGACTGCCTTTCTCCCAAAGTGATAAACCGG…AGGTTGGTTTCACT; site = the 11-nt donor

query: Entry CCGTTGGCATGGACCGGTTTTCCCGGTAATCCGTATTTGTG (site CCGTTAGCTCA) needs its recombinant UMI read abundance (log10) filled in; supply it.
result: 0.661

query: Entry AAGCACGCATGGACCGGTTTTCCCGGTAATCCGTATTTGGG (site GAGCACGCTCC) needs its recombinant UMI read abundance (log10) filled in; supply it.
result: 0.0379

query: Entry TAATGCGCATGGACCGGTTTTCCCGGTAATCCGTATTTGGG (site TAATGTGCTCC) needs its recombinant UMI read abundance (log10) filled in; supply it.
result: 0.00404

query: Entry CATTCAACATGGACCGGTTTTCCCGGTAATCCGTATTTGCC (site CATTCAACTGG) needs its recombinant UMI read abundance (log10) filled in; supply it.
result: 0.426

query: Entry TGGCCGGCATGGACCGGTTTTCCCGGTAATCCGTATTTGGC (site TGGCCGGCTAC) needs its recombinant UMI read abundance (log10) filled in; supply it.
result: 0.0414

---

- Method notes: recombinant barcode read abundance after kanamycin selection (control-corrected) (log10(CPM+1)); higher = more efficient recombination; sequences stand for … in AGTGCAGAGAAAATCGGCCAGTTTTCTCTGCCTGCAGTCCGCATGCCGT…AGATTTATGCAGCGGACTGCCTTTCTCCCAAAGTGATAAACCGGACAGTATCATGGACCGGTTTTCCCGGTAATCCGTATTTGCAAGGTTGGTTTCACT; site = the 11-nt target
Kindly return true if reported recombinant barcode read abundance (log10) is no lower than 0.2; return false if it is lower.

query: Determine whether measured recombinant barcode read abundance (log10) meets or exceeds 0.2 for TATTAATCTTGGGTTCTAACCTGTTGCCT (site CATTAGTCTAG)
result: false

query: Determine whether measured recombinant barcode read abundance (log10) meets or exceeds 0.2 for GTCCAGGCTTGGGTTCTAACCTGTTGCGG (site GTCCAGGCTCC)
result: true

query: Determine whether measured recombinant barcode read abundance (log10) meets or exceeds 0.2 for AGGAACACTTGGGTTCTAACCTGTTGCTT (site AGGAACACTAA)
result: true

query: Determine whether measured recombinant barcode read abundance (log10) meets or exceeds 0.2 for TGAGTCCCTTGGGTTCTAACCTGTTGCTT (site TGAGTACCTAA)
result: false

query: Determine whether measured recombinant barcode read abundance (log10) meets or exceeds 0.2 for GCCGAGTCTTGGGTTCTAACCTGTTGCTA (site GCCGAGTCTCA)
result: true

query: Determine whether measured recombinant barcode read abundance (log10) meets or exceeds 0.2 for TGTGTCTCTTGGGTTCTAACCTGTTGCGT (site TGTGTCTCTAC)
result: true

query: Determine whether measured recombinant barcode read abundance (log10) meets or exceeds 0.2 for GTGGAAGCTTGGGTTCTAACCTGTTGCCT (site GTGGAAGCTAG)
result: true

query: Determine whether measured recombinant barcode read abundance (log10) meets or exceeds 0.2 for ACTTCGACTTGGGTTCTAACCTGTTGCCT (site AATTCGACTAG)
result: false

query: Determine whether measured recombinant barcode read abundance (log10) meets or exceeds 0.2 for TGAAAGTCTTGGGTTCTAACCTGTTGCCT (site TGAAGGTCTAG)
result: false

query: Determine whether measured recombinant barcode read abundance (log10) meets or exceeds 0.2 for CAGGAACCTTGGGTTCTAACCTGTTGCCT (site TAGGAACCTAG)
result: true

These measurements were taken from the supplement of paper PMC11208160.
